These entries and their values trace back to patent US12581252B2.

assay_details: cells
condition_details: Homo sapiens, MCF-10A, read-out: MCF10A IC50
pIC50: −log10 of the molar value.
For each record, write down the corresponding pIC50.

Reported pIC50 for N#Cc1c(-c2cc(NC(=O)c3cc(F)cc(C(F)(F)F)c3)c3c(c2)C(=O)N[C@@H]3c2cc(F)ccc2Cl)ccc2ncnn12 (single isomer, unassigned) was 5.30 to 6.00

Reported pIC50 for C=Cc1cc(NC(=O)c2csc3ccccc23)c2c(c1)C(=O)NC2c1ccccc1C (stereo not drawn) was 5.00 to 5.30

Reported pIC50 for N#CC1(COc2cc(NC(=O)N3C[C@@H](O)c4cc(F)ccc43)c3c(c2)C(=O)N[C@@H]3c2cc(F)ccc2Cl)CC1 (single isomer, unassigned) was 5.30 to 6.00

====

experimental_target: H1047R PIK3CA enzyme (Homo sapiens, UniProt P42336, H1047R)
Sequence (P42336 whole entry H1047R): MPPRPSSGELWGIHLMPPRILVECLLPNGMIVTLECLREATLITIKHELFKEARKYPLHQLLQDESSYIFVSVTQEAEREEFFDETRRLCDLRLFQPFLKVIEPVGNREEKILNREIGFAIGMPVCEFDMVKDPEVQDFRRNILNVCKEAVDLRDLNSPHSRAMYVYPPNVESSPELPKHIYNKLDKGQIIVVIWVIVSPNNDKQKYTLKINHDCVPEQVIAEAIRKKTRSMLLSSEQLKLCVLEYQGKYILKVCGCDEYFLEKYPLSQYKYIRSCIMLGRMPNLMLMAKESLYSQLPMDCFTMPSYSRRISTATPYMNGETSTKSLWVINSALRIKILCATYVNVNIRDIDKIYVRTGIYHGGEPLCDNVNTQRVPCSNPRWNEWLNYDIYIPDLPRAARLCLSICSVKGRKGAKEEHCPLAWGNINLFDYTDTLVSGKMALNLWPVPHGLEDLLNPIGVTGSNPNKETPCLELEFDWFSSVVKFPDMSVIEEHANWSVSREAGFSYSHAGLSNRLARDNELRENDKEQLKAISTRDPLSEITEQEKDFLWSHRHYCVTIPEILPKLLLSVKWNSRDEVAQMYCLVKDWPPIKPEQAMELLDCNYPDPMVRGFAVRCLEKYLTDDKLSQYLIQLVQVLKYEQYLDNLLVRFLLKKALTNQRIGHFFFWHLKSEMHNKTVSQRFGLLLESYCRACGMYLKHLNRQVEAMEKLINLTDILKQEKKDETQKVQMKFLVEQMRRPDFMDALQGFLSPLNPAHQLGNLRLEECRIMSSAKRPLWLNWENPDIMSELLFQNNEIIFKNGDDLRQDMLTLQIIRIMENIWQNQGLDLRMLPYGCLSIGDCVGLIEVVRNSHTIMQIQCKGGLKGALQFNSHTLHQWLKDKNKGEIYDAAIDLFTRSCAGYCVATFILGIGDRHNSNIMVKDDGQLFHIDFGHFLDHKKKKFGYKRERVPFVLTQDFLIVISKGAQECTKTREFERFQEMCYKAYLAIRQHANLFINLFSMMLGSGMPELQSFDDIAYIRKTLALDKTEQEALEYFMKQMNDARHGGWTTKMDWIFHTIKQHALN
Sequence (P27986 whole entry partner): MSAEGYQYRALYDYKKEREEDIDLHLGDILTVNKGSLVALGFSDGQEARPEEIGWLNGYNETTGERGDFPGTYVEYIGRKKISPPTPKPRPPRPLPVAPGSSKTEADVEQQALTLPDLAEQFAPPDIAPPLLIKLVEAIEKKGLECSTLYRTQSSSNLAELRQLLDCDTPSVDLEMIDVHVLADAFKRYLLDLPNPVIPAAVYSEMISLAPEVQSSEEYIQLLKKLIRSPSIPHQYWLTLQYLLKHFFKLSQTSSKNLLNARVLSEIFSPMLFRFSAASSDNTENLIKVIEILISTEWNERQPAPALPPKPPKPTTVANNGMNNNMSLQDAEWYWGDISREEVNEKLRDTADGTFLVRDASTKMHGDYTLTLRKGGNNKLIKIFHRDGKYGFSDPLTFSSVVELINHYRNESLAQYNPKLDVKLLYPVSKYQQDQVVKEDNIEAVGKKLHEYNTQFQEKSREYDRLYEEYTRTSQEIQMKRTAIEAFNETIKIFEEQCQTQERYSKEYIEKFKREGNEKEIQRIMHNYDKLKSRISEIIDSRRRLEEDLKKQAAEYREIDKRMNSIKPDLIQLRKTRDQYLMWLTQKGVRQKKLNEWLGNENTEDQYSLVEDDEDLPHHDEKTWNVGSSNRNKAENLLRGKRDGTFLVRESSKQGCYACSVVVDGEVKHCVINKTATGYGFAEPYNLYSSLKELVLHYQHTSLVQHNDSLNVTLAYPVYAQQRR
assay_details: ADP-Glo Biochemical PIK3CA Kinase Assay
pIC50: −log10 of the molar value.
For each record, write down the corresponding pIC50.

Reported pIC50 for CC(F)c1cc(F)cc(C(=O)Nc2cc(Br)cc3c2C(c2cc(F)ccc2Cl)NC3=O)c1 (centres unmarked) was 6.30 to 7.00

Reported pIC50 for CC(C)(C#N)n1cc(-c2cc(NC(=O)c3cc(F)cc(C(F)(F)F)c3)c3c(c2)C(=O)NC3c2cc(F)ccc2Cl)cn1 (centres unmarked) was ≥ 7.00

Reported pIC50 for O=C(Nc1cc(-c2cc3cnccc3[nH]2)cc2c1C(c1cc(F)ccc1Cl)NC2=O)c1cc(F)cc(C(F)(F)F)c1 (centres unmarked) was ≥ 7.00

Reported pIC50 for Cn1ccc(-c2cc(NC(=O)c3cc(F)cc(C(F)(F)F)c3)c3c(c2)C(=O)N[C@H]3c2cc(F)ccc2Cl)cc1=O (stereo in doubt) was 5.00 to 6.00

Reported pIC50 for C[C@@H](C#N)Cn1cc(-c2cc(NC(=O)N3C[C@H](O)c4cc(F)ccc43)c3c(c2)C(=O)N[C@@H]3c2cc(F)ccc2Cl)cn1 (single isomer, unassigned) was 6.30 to 7.00

Reported pIC50 for O=C1NC(c2cc(F)ccc2Cl)c2c(NC(=O)C3CCC4C(C3)C4(F)F)cc(Br)cc21 (centres unmarked) was 5.00 to 6.00

Reported pIC50 for O=C(CC1CCCCC1)Nc1cc(-c2ccc3ncnn3c2)cc2c1C(c1cc(F)ccc1Cl)NC2=O (centres unmarked) was 5.00 to 6.00

Reported pIC50 for O=C(CCc1ccccc1)Nc1cc(-c2ccc3ncnn3c2)cc2c1C(c1cc(F)ccc1Cl)NC2=O (centres unmarked) was 5.00 to 6.00

Reported pIC50 for CC(O)(CC#N)c1cc(NC(=O)c2cc(F)cc(C(F)(F)F)c2)c2c(c1)C(=O)NC2c1cc(F)ccc1Cl (centres unmarked) was ≥ 7.00

Reported pIC50 for O=C1NC(c2cc(F)ccc2Cl)c2c(NC(=O)c3cccc4c(Cl)c[nH]c34)cc(Br)cc21 (centres unmarked) was 6.00 to 6.30

Reported pIC50 for N#Cc1cc(NC(=O)c2cc(F)cc(C(F)(F)F)c2)c2c(c1)C(=O)N[C@H]2c1cc(F)ccc1Cl (single isomer, unassigned) was ≥ 7.00

Reported pIC50 for Cc1ccccc1C1NC(=O)c2cccc(NC(=O)c3cnc4ccc(Cl)cn34)c21 (centres unmarked) was 4.00 to 5.00

Reported pIC50 for O=C(Nc1cccc2c1C(c1cc(O)ccc1Cl)NC2=O)c1cc(F)cc(C(F)(F)F)c1 (centres unmarked) was 5.00 to 6.00

Reported pIC50 for O=C1NC(c2cc(F)ccc2Cl)c2c(Nc3cn4ccccc4n3)cc(-c3ccc4ncnn4c3)cc21 (centres unmarked) was 5.00 to 6.00

====

For each record, write down the corresponding pIC50.
assay_details: cells
condition_details: Homo sapiens, MCF-10A, read-out: MCF10A IC50
pIC50: −log10 of the molar value.

Reported pIC50 for CC(=O)Nc1cc(NC(=O)c2csc3ccccc23)c2c(c1)C(=O)NC2c1ccccc1C (stereo not shown) was > 6.00

Reported pIC50 for Cc1nn(C)cc1Nc1cc(NC(=O)c2cc(F)cc(C(F)(F)F)c2)c2c(c1)C(=O)NC2c1cc(F)ccc1Cl (stereo not shown) was > 6.00

Reported pIC50 for Cn1cc(Nc2cc(NC(=O)c3cc(F)cc(C(F)(F)F)c3)c3c(c2)C(=O)N[C@H]3c2cc(F)ccc2Cl)cn1 (single isomer, unassigned) was > 6.00

Reported pIC50 for N#CCc1cc(NC(=O)c2cc(F)cc(C(F)(F)F)c2)c2c(c1)C(=O)N[C@H]2c1cc(F)ccc1Cl (racemic) was > 6.00

Reported pIC50 for Cc1ccccc1C1NC(=O)c2cc(Br)cc(NC(=O)c3cc(F)cc(C(F)(F)F)c3)c21 (stereo not shown) was 5.30 to 6.00

Reported pIC50 for N#CCc1cc(NC(=O)N2CC(O)(C(F)(F)F)c3cc(F)ccc32)c2c(c1)C(=O)NC2c1cc(F)ccc1Cl (mixture of isomers) was > 6.00

Reported pIC50 for Cc1cc(-c2cc(NC(=O)c3cc(F)cc(C(F)(F)F)c3)c3c(c2)C(=O)NC3c2cc(F)ccc2Cl)cc2cnn(C)c12 (stereo not shown) was 5.00 to 5.30

Reported pIC50 for O=C(Nc1cc(-c2ccn[nH]2)cc2c1[C@H](c1cc(F)ccc1Cl)NC2=O)c1cc(F)cc(C(F)(F)F)c1 was > 6.00

Reported pIC50 for O=C(Nc1cc(CS(=O)(=O)C2CC2)cc2c1C(c1cc(F)ccc1Cl)NC2=O)c1cc(F)cc(C(F)(F)F)c1 (stereo not shown) was > 6.00

Reported pIC50 for O=C(Nc1cc(-c2cnn(-c3ncccn3)c2)cc2c1C(c1cc(F)ccc1Cl)NC2=O)c1cc(F)cc(C(F)(F)F)c1 (stereo not shown) was > 6.00

Reported pIC50 for O=C(Nc1cc(-c2cnc3ccnn3c2)cc2c1C(c1cc(F)ccc1Cl)NC2=O)c1cc(F)cc(C(F)(F)F)c1 (stereo not shown) was > 6.00

Reported pIC50 for N#CCc1cc(NC(=O)N2C[C@](O)(C(F)F)c3cc(F)ccc32)c2c(c1)C(=O)N[C@H]2c1cc(F)ccc1Cl (single isomer, unassigned) was > 6.00

Reported pIC50 for CC(C)(C)OC(=O)N1CC(n2cc(-c3cc(NC(=O)c4cc(F)cc(C(F)(F)F)c4)c4c(c3)C(=O)NC4c3cc(F)ccc3Cl)cn2)C1 (stereo not shown) was 5.00 to 5.30

====

For each record, write down the corresponding pIC50.
experimental_target: H1047R PIK3CA enzyme (Homo sapiens, UniProt P42336, H1047R)
assay_details: ADP-Glo Biochemical PIK3CA Kinase Assay
pIC50: −log10 of the molar value.

Reported pIC50 for Cn1cc(-c2cc(NC(=O)c3cc(F)cc(C(F)(F)F)c3)c3c(c2)C(=O)N[C@@H]3c2cc(F)ccc2Cl)ccc1=O (single isomer, unassigned) was 6.00 to 6.30

Reported pIC50 for O=C1N[C@@H](c2cc(F)ccc2Cl)c2c(NC(=O)N3C[C@](O)(C(F)F)c4cc(F)ccc43)cc(F)cc21 (single isomer, unassigned) was ≥ 7.00

Reported pIC50 for N#Cc1ccc2c(c1)CCCN2c1cc(NC(=O)c2cc(F)cc(C(F)(F)F)c2)c2c(c1)C(=O)NC2c1cc(F)ccc1Cl (stereo not shown) was ≥ 7.00

Reported pIC50 for CNC(=O)c1cc(NC(=O)c2cc(F)cc(C(F)(F)F)c2)c2c(c1)C(=O)NC2c1ccccc1C (stereo not shown) was ≥ 7.00

Reported pIC50 for CC(=O)N1CCCCC1C(=O)Nc1cc(-c2ccc3ncnn3c2)cc2c1C(c1cc(F)ccc1Cl)NC2=O (mixture of isomers) was 4.00 to 5.00

Reported pIC50 for O=C1N[C@@H](c2cc(F)ccc2Cl)c2c(NC(=O)N3C[C@H](O)c4cc(F)ccc43)cc(-n3ccnn3)cc21 (single isomer, unassigned) was 5.00 to 6.00

Reported pIC50 for O=C(Nc1cc(Cl)nc2c1[C@H](c1cc(F)ccc1Cl)NC2=O)c1cc(F)cc(C(F)(F)F)c1 was 6.30 to 7.00

Reported pIC50 for O=C(Nc1cc(N[C@@H]2CC[C@H]2O)cc2c1C(c1cc(F)ccc1Cl)NC2=O)c1cc(F)cc(C(F)(F)F)c1 (mixture of isomers) was ≥ 7.00

Reported pIC50 for N#CC1(CNc2cc(NC(=O)c3cc(F)cc(C(F)(F)F)c3)c3c(c2)C(=O)NC3c2cc(F)ccc2Cl)CC1 (stereo not shown) was ≥ 7.00

Reported pIC50 for O=C1NC(c2cc(F)ccc2Cl)c2c1cccc2N1Cc2ccccc2CC1=O (stereo not shown) was 4.00 to 5.00

Reported pIC50 for O=C1N[C@H](c2cc(F)ccc2Cl)c2c(NC(=O)c3csc4ccccc34)cc(Br)cc21 was 5.00 to 6.00

Reported pIC50 for O=C(Nc1cc(N2CC(F)(F)C2)nc2c1C(c1cc(F)ccc1Cl)NC2=O)c1cc(F)cc(C(F)(F)F)c1 (stereo not shown) was ≥ 7.00

Reported pIC50 for Cc1ccccc1C1NC(=O)c2cccc(NC(=O)c3cc(F)cc(OC(F)(F)F)c3)c21 (stereo not shown) was 6.00 to 6.30
